# Tested on: P12-Ichikawa
# assay.explanation: cell viability relative to DMSO control; higher = less cytotoxic
# test.settings: RPMI 5 mM glucose + 10% FBS; 48 h; 46.1 µM
Quick list: cell viability per entry.
measured.endpoint: cell viability (%)

{"molecule": "C[C@]12CC[C@@H]3c4ccc(OC(=O)N(CCCl)CCCl)cc4CC[C@H]3[C@@H]1CC[C@@H]2OP(=O)([O-])[O-].[Na+].[Na+]", "system": "P12-Ichikawa", "measured.endpoint": "cell viability", "value.observed": 119}
{"molecule": "COc1cc2c(cc1-c1c(C)noc1C)ncc1[nH]c(=O)n([C@H](C)c3ccccn3)c12", "system": "P12-Ichikawa", "measured.endpoint": "cell viability", "value.observed": 23.1}
{"molecule": "COC1=CC=CC=C1C2=CC=CC(=C2)C/3=C(O)/C4=CC(=C(Cl)C=C4NC3=O)C#N", "system": "P12-Ichikawa", "measured.endpoint": "cell viability", "value.observed": 5.71}
{"molecule": "CN[S+](=O)([O-])Cc1ccc2[nH]cc(CCN(C)C)c2c1", "system": "P12-Ichikawa", "measured.endpoint": "cell viability", "value.observed": 131}
{"molecule": "O=C(OC)[C@]12CC[C@@]3(C)[C@]4(C)CC[C@H]5[C@@](C)(C)C(=O)C(=C[C@]5(C)C4=CC(=O)[C@@H]3[C@@H]2C[C@](C)(C)CC1)C#N", "system": "P12-Ichikawa", "measured.endpoint": "cell viability", "value.observed": 2.78}
{"molecule": "Cc1cn2c(-c3cn[nH]c3)cnc2c(Nc2ccc(C(=O)N3CCNCC3)cc2F)n1", "system": "P12-Ichikawa", "measured.endpoint": "cell viability", "value.observed": 49.2}
{"molecule": "COC[C@H]1OC(=O)C2=COC3=C2[C@@]1(C)\\C4=C(C5CCC(=O)[C@@]5(C)C[C@H]4OC(C)=O)/C3=O (stereo partly drawn)", "system": "P12-Ichikawa", "measured.endpoint": "cell viability", "value.observed": 82}
{"molecule": "CN(CC#C)C/C1=C/C2=CC=CC=C2OC3=CC=CC=C13", "system": "P12-Ichikawa", "measured.endpoint": "cell viability", "value.observed": 82}

* * *

Quick list: cell viability per entry.
# System: NOMO1
# assay.explanation: cell viability relative to DMSO control; higher = less cytotoxic
# test.settings: HPLM + 10% dialyzed FBS; 48 h; 0.19 µM

{"compound": "Cn1c(=O)c2c(ncn2C)n(C)c1=O.O=C(O)CC(O)(CC(=O)O)C(=O)O", "unit": "%", "cell viability": 114}
{"compound": "O=C(NOCC(O)CO)c1cc(Br)c(F)c(F)c1Nc1ccc(I)cc1F (configuration not stated)", "unit": "%", "cell viability": 50.5}
{"compound": "CCC(C)SSc1ncc[nH]1 (configuration not stated)", "unit": "%", "cell viability": 105}
{"compound": "CN1[C@@H]2CC(OC(=O)[C@@H](CO)c3ccccc3)C[C@H]1[C@H]1O[C@H]12 (some centres not stated)", "unit": "%", "cell viability": 104}
{"compound": "CC/1=C/C(=O)N(O)/C(=C1)C2CCCCC2", "unit": "%", "cell viability": 145}
{"compound": "COC1=CC2=NC=CC(=C2C=C1)OC3=CN=C(NC(=O)C/4=C(C)/N(CC(C)(C)O)N(C4=O)C5=CC=CC=C5)C=C3", "unit": "%", "cell viability": 107}
{"compound": "FC(F)(F)c1ccc(/C=C/c2nc(COc3ccc(CCCCn4ccnn4)cc3)co2)cc1", "unit": "%", "cell viability": 104}
{"compound": "C=C(C)[C@@H]1CC[C@]2(C(=O)O)CC[C@]3(C)[C@H](CC[C@@H]4[C@@]5(C)CC[C@H](O)C(C)(C)[C@@H]5CC[C@]43C)[C@@H]12", "unit": "%", "cell viability": 110}
{"compound": "CCCc1nc(C(C)(C)O)c(C(=O)O)n1Cc1ccc(-c2ccccc2-c2nn[nH]n2)cc1", "unit": "%", "cell viability": 120}
{"compound": "COc1ccc(C[C@@H](C)[C@@H](C)Cc2ccc(OC)c(OC)c2)cc1OC", "unit": "%", "cell viability": 75.5}
{"compound": "CC(=O)Nc1ccc(OC[C@](C)(O)C(=O)Nc2ccc([N+](=O)[O-])c(C(F)(F)F)c2)cc1", "unit": "%", "cell viability": 80.2}
{"compound": "CC(C)OC(=O)OCOP(=O)(CO[C@H](C)Cn1cnc2c(N)ncnc21)OCOC(=O)OC(C)C.O=C(O)C=CC(=O)O", "unit": "%", "cell viability": 129}
{"compound": "CN(C)c1ccc(O)c2c1C[C@H]1C[C@H]3[C@H](N(C)C)C(O)=C(C(N)=O)C(=O)[C@@]3(O)C(O)=C1C2=O", "unit": "%", "cell viability": 125}
{"compound": "OC(=O)C1=CC=C(NC2=NC3=C(C\\N=C(/C4=CC(=CC=C34)Cl)C5=C(F)C=CC=C5F)C=N2)C=C1", "unit": "%", "cell viability": 103}
{"compound": "COC1=CC=CC2=C1C(=NC(=N2)C3=CC=CS3)NN4C(=O)\\C=C(C)/C4=O", "unit": "%", "cell viability": 60.3}
{"compound": "O=C(NCC[S+](=O)([O-])c1ccc(C(F)(F)F)cn1)c1ccc(Cl)cc1", "unit": "%", "cell viability": 120}
{"compound": "COC[C@H]1OC(=O)C2=COC3=C2[C@@]1(C)\\C4=C(C5CCC(=O)[C@@]5(C)C[C@H]4OC(C)=O)/C3=O (some centres not stated)", "unit": "%", "cell viability": 114}
